Tested on: Hs578T multi-cell spheroids, viability
Experiment: Anticancer human tumor Hs578T cell line growth inhibition [IpAb]; active = viability on the fitted dose curve at most 10% of control; inactive = the rest;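 also: drug exposure lasted 7 days before readout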
Conditions: second compound 0.1 µM; first compound 1 µM
Select the matching outcome among active, inactive

Cn1nccc1Nc1nccc(-c2ccn(C(CO)c3ccc(Cl)c(F)c3)c(=O)c2)n1 (stereo not given) + CCN1CCN(Cc2ccc(Nc3ncc(F)c(-c4cc(F)c5nc(C)n(C(C)C)c5c4)n3)nc2)CC1	inactive
C=CC(=O)N1CCN(c2nc(=O)n(-c3c(C)ccnc3C(C)C)c3nc(-c4c(O)cccc4F)c(F)cc23)C(C)C1 (stereo not given) + CCN1CCN(Cc2ccc(Nc3ncc(F)c(-c4cc(F)c5nc(C)n(C(C)C)c5c4)n3)nc2)CC1	inactive
COc1c(OCCCN2CCOCC2)ccc2c3n(c(=NC(=O)c4cnc(N)nc4)nc12)CCN3 + CCN1CCN(Cc2ccc(Nc3ncc(F)c(-c4cc(F)c5nc(C)n(C(C)C)c5c4)n3)nc2)CC1	active
CC1(C)CCC(CN2CCN(c3ccc(C(=O)NS(=O)(=O)c4ccc(NCC5CCOCC5)c([N+](=O)[O-])c4)c(Oc4cnc5[nH]ccc5c4)c3)CC2)=C(c2ccc(Cl)cc2)C1 + CCN1CCN(Cc2ccc(Nc3ncc(F)c(-c4cc(F)c5nc(C)n(C(C)C)c5c4)n3)nc2)CC1	inactive
Cn1ncc(Cl)c1-c1cc(C(=O)NC(CN)Cc2cccc(F)c2)sc1Cl (stereo not given) + CCN1CCN(Cc2ccc(Nc3ncc(F)c(-c4cc(F)c5nc(C)n(C(C)C)c5c4)n3)nc2)CC1	inactive

What is the recorded call for this compound in the test? C=CCn1c(=O)c2cnc(Nc3ccc(N4CCN(C)CC4)cc3)nc2n1-c1cccc(C(C)(C)O)n1 + CCN1CCN(Cc2ccc(Nc3ncc(F)c(-c4cc(F)c5nc(C)n(C(C)C)c5c4)n3)nc2)CC1
inactive

What is the recorded call for this compound in the test? CC1(C)CCC(CN2CCN(c3ccc(C(=O)NS(=O)(=O)c4ccc(NCC5CCOCC5)c([N+](=O)[O-])c4)c(Oc4cnc5[nH]ccc5c4)c3)CC2)=C(c2ccc(Cl)cc2)C1 + CC(C)NCC(C(=O)N1CCN(c2ncnc3c2C(C)CC3O)CC1)c1ccc(Cl)cc1
inactive

What is the recorded call for this compound in the test? COc1c(OCCCN2CCOCC2)ccc2c3n(c(=NC(=O)c4cnc(N)nc4)nc12)CCN3 + CC(C)NCC(C(=O)N1CCN(c2ncnc3c2C(C)CC3O)CC1)c1ccc(Cl)cc1
active

What is the recorded call for this compound in the test? C=CC(=O)N1CCN(c2nc(=O)n(-c3c(C)ccnc3C(C)C)c3nc(-c4c(O)cccc4F)c(F)cc23)C(C)C1 (stereo not given) + CC(C)NCC(C(=O)N1CCN(c2ncnc3c2C(C)CC3O)CC1)c1ccc(Cl)cc1
inactive

What is the recorded call for this compound in the test? CCCS(=O)(=O)Nc1ccc(F)c(C(=O)c2c[nH]c3ncc(-c4ccc(Cl)cc4)cc23)c1F + CCN1CCN(Cc2ccc(Nc3ncc(F)c(-c4cc(F)c5nc(C)n(C(C)C)c5c4)n3)nc2)CC1
inactive
